Would you mind telling me the reported z-score of each entry?
# Test: P. aeruginosa biofilm formation inhibitors, primary screen, PAO1 strain, BacTiter-Glo luminescence, LB-PBS (AID 1144)
# Settings: 12 h, higher = more signal
Active and inactive are the calls of the source. No rule for the calls is given here.

**Query** Query z-score for COc1ccc(C(=O)Nc2cccc(CN3C(=O)[C@]4(O[C@H](CC(=O)N(CCO)Cc5ccccc5)[C@@H]([Si](C)(C)c5ccc(OC)cc5)[C@@H]4C)c4ccccc43)c2)cc1
**Result** 0.172 (inactive)

**Query** Query z-score for CCc1cccc(NC(=O)O[C@H]2[C@H](OC(=O)Nc3ccccc3-c3ccccc3)[C@H](OC(=O)Nc3ccccc3-c3ccccc3)[C@@H](OC)O[C@@H]2CO)c1
**Result** -1.82 (inactive)

**Query** Query z-score for C=CCOC(=O)[C@H]1[C@@H]2C(=O)O[C@@H](c3ccccc3)[C@@H](c3ccccc3)N2[C@@H](c2ccc(OCCOC(=O)[C@@H]3C[C@@H]4C(=O)N[C@@H](Cc5ccccc5)C(=O)N4[C@@H]3c3ccc(O)cc3)cc2)[C@]12C(=O)Nc1ccc(I)cc12
**Result** 0.0872 (inactive)

**Query** Query z-score for COc1cc2c(cc1O)C(C)N(Cc1sc3ccccc3c1Cl)CC2 (stereo not drawn)
**Result** -0.432 (inactive)

**Query** Query z-score for CC(C)(C)OC(=O)CC[C@@]1(C(N)=O)N=C(c2ccc(OCCCO)cc2)O[C@@H]1c1ccccc1CN=[N+]=[N-]
**Result** 0.938 (inactive)

**Query** Query z-score for CCOC(=O)C1=CCC(c2ccncc2)N(S(=O)(=O)c2ccc(C)cc2)C1 (stereo not drawn)
**Result** -0.83 (inactive)

**Query** Query z-score for COc1ccc([Si](C)(C)[C@H]2[C@H](CC(=O)N3CCC[C@H]3CO)O[C@@]3(C(=O)N(Cc4cccc(N5CCCCC5=O)c4)c4ccccc43)[C@@H]2C)cc1
**Result** -0.00805 (inactive)

**Query** Query z-score for COCCOC(=O)N1C(=O)[C@@]2(c3cc(C#CC4=CCCCC4)ccc31)[C@H](c1ccc(O)cc1)N1[C@H](c3ccccc3)[C@H](c3ccccc3)OC(=O)[C@H]1[C@@H]2C(=O)N1CCc2cc(OC)c(OC)cc2C1
**Result** 0.315 (inactive)

**Query** Query z-score for O=C1OCCC/C=C\[C@H]2OC34C=CCN(Cc5ccccc5)C(=O)[C@H]3N(CCO)C(=O)[C@@H]4C12 (stereo partly drawn)
**Result** -1.38 (inactive)

**Query** Query z-score for COC(=O)[C@@]1(Cc2ccc(F)cc2)[C@H]2c3cc(C(=O)N4CCCC4)n(CCSCCO)c3C[C@H]2CN1C(=O)c1ccccc1
**Result** -0.375 (inactive)

**Query** Query z-score for COc1ccc([Si](C)(C)[C@H]2[C@H](CCO)O[C@@]3(C(=O)N(Cc4ccccc4)c4ccc(NC(=O)[C@H](C)O)cc43)[C@@H]2C)cc1
**Result** -1.29 (inactive)

**Query** Query z-score for COc1ccc(CCNC(=O)[C@@H]2c3ccccc3C(=O)N(C(C)C)[C@H]2c2ccc(CO)cc2)cc1
**Result** 0.948 (inactive)

**Query** Query z-score for OCCCc1cc[n+](Cc2cc3c(cc2Br)OCO3)cc1
**Result** 0.0177 (inactive)

**Query** Query z-score for COCCOC(=O)N1C(=O)[C@@]2(c3cc(C#CCNC(N)=O)ccc31)[C@H](c1ccccc1OCCO)N1[C@H](c3ccccc3)[C@H](c3ccccc3)OC(=O)[C@H]1[C@@H]2C(=O)N1CCCCCCC1
**Result** 0.342 (inactive)

**Query** Query z-score for C=C1C(=O)C=C2CN(C(=O)c3ccccc3)[C@@](Cc3ccc(F)cc3)(C(=O)OC)[C@@H]12
**Result** 1.1 (inactive)

**Query** Query z-score for C[C@@]1([C@@H](NS(=O)(=O)c2cccc3cccnc23)c2ccc(-c3ccccc3)cc2)C[C@H]1C1CCCCC1
**Result** 0.33 (inactive)

**Query** Query z-score for COCCCNC(=O)[C@@]1(Cc2ccccc2I)c2ccccc2C(=O)N(Cc2ccccc2C(F)(F)F)[C@H]1c1ccc(CO)cc1
**Result** -0.528 (inactive)

**Query** Query z-score for CN(C)CCCCCCNC(=O)[C@@H]1C[C@@H]2C(=O)N[C@@H](CCCC[N+](C)(C)C)C(=O)N2[C@@H]1c1cccc(OCCO)c1
**Result** -0.217 (inactive)

**Query** Query z-score for CCCCC=C[C@@H](NC(=O)C(C)(C)C)c1ccccc1
**Result** 0.124 (inactive)

**Query** Query z-score for COc1ccc([Si](C)(C)[C@H]2[C@H](CC(=O)N(CCO)Cc3ccccc3)O[C@@]3(C(=O)N(c4ccccc4)c4ccccc43)[C@@H]2C)cc1
**Result** -0.164 (inactive)

**Query** Query z-score for NCCCCCCNC(=O)[C@@H]1C[C@@H]2C(=O)NCC(=O)N2[C@@H]1c1cccc(OCCO)c1
**Result** -0.584 (inactive)

**Query** Query z-score for CC(C)C[C@@H]1NC(=O)[C@@H]2C[C@H](C(=O)NCCCCCNC(=O)CS)[C@H](c3ccc(O)cc3)N2C1=O
**Result** -0.455 (inactive)

**Query** Query z-score for COCCOC(=O)N1C(=O)[C@@]2(c3ccccc31)[C@H](C(=O)Nc1nc3ccccc3s1)[C@H]1C(=O)O[C@H](c3ccccc3)[C@H](c3ccccc3)N1[C@@H]2c1ccccc1OCCO
**Result** -0.457 (inactive)

**Query** Query z-score for COC(=O)C1=CC(c2ccc(CO)cc2)=CC(C2CC2)N(Cc2cc3c(cc2Br)OCO3)C=C1C(=O)OC (stereo not drawn)
**Result** 0.754 (inactive)

**Query** Query z-score for C=C(C(=O)CC[C@@H](OC(=O)c1cccnc1)c1cccc(OCCO)c1)C(C)C
**Result** -0.372 (inactive)

**Query** Query z-score for CN1C(=O)C2C=CC(C(O)c3ccc(I)cc3)N(N(c3ccccc3)c3ccccc3)C2C1=O (stereo not drawn)
**Result** 0.257 (inactive)

**Query** Query z-score for CC1C2C(CCCO)=CC(C3C(=O)N(C)C(=O)C23)N1Cc1cccc(OC(F)(F)F)c1 (stereo not drawn)
**Result** 0.403 (inactive)

**Query** Query z-score for CCCC[C@@H](O)C1=C(C)Cn2c(=O)n(-c3ccccc3)c(=O)n2[C@H]1CO
**Result** -0.275 (inactive)

Data provenance: PubChem BioAssay
